- Tested on: CD2F1 mice, L1210 leukemia ip, survival T/C
- Protocol Summary: NCI In Vivo Anticancer Drug Screen. Data for tumor model L1210 Leukemia (intraperitoneal) in CD2F1 (CDF1) mice
- Settings: endpoint: mean survival time; dose: 12.5 mg/kg/injection; schedule: Q01DX009 (ip); vehicle: water; higher = longer survival
Inconclusive results and toxic doses are left out.
Readout: T/C

[[record]]
compound = "COc1ccc(C(O)c2ncccc2C)cc1OC (centres undefined)"
readout = "T/C"
value_reported = "100 % of control"

[[record]]
compound = "CCOC(=O)CC(Cc1cc(OC)ccc1OC)(C(C)=O)C(C)=O"
readout = "T/C"
value_reported = "100 % of control"

[[record]]
compound = "COC(C)(C)O/N=C(\\C[n+]1ccccc1)c1ccccc1"
readout = "T/C"
value_reported = "95 % of control"

[[record]]
compound = "CC(CC(C(=O)O)C(=O)O)C(=O)O (centres undefined)"
readout = "T/C"
value_reported = "93 % of control"


These entries and their values trace back to PubChem BioAssay AID256.
